Test system: K-562 leukemia
test.description: NCI tumour cell line growth inhibition, 48 h
endpoint: TGI

- line.notation: "Cc1ccc(S(=O)(=O)Nn2c(S)c(C#N)c(-c3ccc(N(C)C)cc3)c(C#N)c2=O)cc1"
  value.reported: "> 100 µM"
- line.notation: "CSc1nc(N)cc(Oc2ccc(-c3nc(Nc4cccc(C(F)(F)F)c4)n[nH]3)cc2)n1"
  value.reported: "> 35.3 µM"
- line.notation: "NC1CCCCC1N.O=C([O-])c1cc(S(=O)(=O)Nc2cc(S(=O)(=O)[O-])cc3cc(S(=O)(=O)[O-])cc(O)c23)ccc1[O-].[Pt+4]"
  value.reported: "> 100 µM"
- line.notation: "N#Cc1c(-c2ccc(Cl)cc2)cc(-c2ccc(Nc3ccnc4cc(Cl)ccc34)cc2)nc1N"
  value.reported: "> 100 µM"
